test system: carbapenemase producing K. pneumoniae; assay: MIC by broth micro-dilution (CLSI), carbapenemase producing K. pneumoniae; format: cell-based, Klebsiella pneumoniae; details: Klebsiella pneumoniae, ATCCBAA1705, KPC-2 K. pneumoniae ATCC BAA-1705; read-out: MIC
RECORDED ENDPOINT: MIC (µg/mL)
Numbers only; they are read as µg/mL.

Example molecules with recorded MIC:
# MOLECULE, MIC (µg/mL)
rows = [
    ("CNCC(=O)N[C@H](C)[C@H]1C(=O)N2C(C(=O)O)=C(S[C@@H]3CN[C@H](C(=O)N4CCC(N)CC4)C3)[C@H](C)[C@H]12", 4),
    ("C[C@@H](NC(=O)C(F)F)[C@H]1C(=O)N2C(C(=O)O)=C(SC3CN[C@H](C(=O)N4CCO[C@@H](CN)C4)C3)[C@H](C)[C@H]12 (some centres unmarked)", 16),
    ("C[C@@H](NC(=O)Cn1cnnn1)[C@H]1C(=O)N2C(C(=O)O)=C(SC3CNC3)[C@H](C)[C@H]12", 1),
    ("C[C@@H](NC(=O)C(F)F)[C@H]1C(=O)N2C(C(=O)O)=C(S[C@@H]3CN[C@H](C(=O)N(C)CCC(=O)N4CCCNCC4)C3)[C@H](C)[C@H]12", 8),
    ("C[C@@H](NCC1CC1)[C@H]1C(=O)N2C(C(=O)O)=C(S[C@@H]3CN[C@H](C(=O)N(C)C)C3)[C@H](C)[C@H]12", 128),
]

Fill in: MIC of C[C@@H](Oc1ccon1)[C@H]1C(=O)N2C(C(=O)O)=C(S[C@@H]3CN[C@H](C(=O)N(C)C)C3)[C@H](C)[C@H]12 is ___
64

Same read-out for C[C@@H](NS(=O)(=O)C(F)(F)F)[C@H]1C(=O)N2C(C(=O)O)=C(S[C@@H]3CN[C@H](C(=O)N4CC[C@@H](O)C4)C3)[C@H](C)[C@H]12 ?
8

// same read-out, input: C[C@@H](NC(=O)Cn1cnnn1)[C@H]1C(=O)N2C(C(=O)O)=C(S[C@@H]3CN[C@H](C(=O)N4CCC5CNCC5(C(=O)O)C4)C3)[C@H](C)[C@H]12 (some centres unmarked)
2

Param item: C[C@@H](NS(=O)(=O)c1ccc(F)cc1)[C@H]1C(=O)N2C(C(=O)O)=C(S[C@@H]3CN[C@H](C(=O)N(C)C)C3)[C@H](C)[C@H]12
32

Moving on to C[C@@H](NC(=O)Cn1cnnn1)[C@H]1C(=O)N2C(C(=O)O)=C(S[C@@H]3CN[C@H](C(=O)N4CC[C@@H](NC(=O)CNC(=N)N)C4)C3)[C@H](C)[C@H]12
0.5

###

test system: carbapenemase producing K. pneumoniae; test: MIC by broth micro-dilution (CLSI), carbapenemase producing K. pneumoniae; assay type: cell-based, Klebsiella pneumoniae; settings: Klebsiella pneumoniae, ATCCBAA1705, KPC-2 K. pneumoniae ATCC BAA-1705; read-out: MIC
RECORDED ENDPOINT: MIC (µg/mL)
Enter your answer as a number in µg/mL; do not include the unit.

// below: answered molecules
# MOLECULE, ENDPOINT VALUE
rows = [
    ("C[C@@H](NC(=O)Cn1cnnn1)[C@H]1C(=O)N2C(C(=O)O)=C(S[C@@H]3CN[C@H](C(=O)N4CC[C@@H](NCCN)C4)C3)[C@H](C)[C@H]12", 2),
    ("C[C@@H](NC(=O)C(F)F)[C@H]1C(=O)N2C(C(=O)O)=C(S[C@@H]3CN[C@H](C(=O)N(C)[C@@H]4CN[C@H](C(=O)N(C)C)C4)C3)[C@H](C)[C@H]12", 8),
    ("C[C@@H](NC(=O)Cn1cnnn1)[C@H]1C(=O)N2C(C(=O)O)=C(S[C@@H]3CN[C@H](C(=O)N4CCC(C(=O)NCC(O)CN)CC4)C3)[C@H](C)[C@H]12 (single isomer, unassigned)", 2),
    ("C[C@@H](NC(=O)CN1CCCC1)[C@H]1C(=O)N2C(C(=O)O)=C(S[C@@H]3CN[C@H](C(=O)N(C)C)C3)[C@H](C)[C@H]12", 1),
]

Proceed to the following item.
Need MIC, item C[C@@H](NC(=O)Cn1cnnn1)[C@H]1C(=O)N2C(C(=O)O)=C(S[C@@H]3CN[C@H](C(=O)N4C[C@H](N)C[C@H]4CNS(N)(=O)=O)C3)[C@H](C)[C@H]12
2

###

test system: carbapenemase producing K. pneumoniae; assay: MIC by broth micro-dilution (CLSI), carbapenemase producing K. pneumoniae; assay type: cell-based, Klebsiella pneumoniae; settings: Klebsiella pneumoniae, ATCCBAA1705, KPC-2 K. pneumoniae ATCC BAA-1705; read-out: MIC
# MIC per record follows
Give your result in µg/mL as a bare value.

# COMPOUND, MEASUREMENT TARGET, MIC / µg/mL
measured = [
    ("C[C@@H](NC(=O)C(F)F)[C@H]1C(=O)N2C(C(=O)O)=C(S[C@@H]3CN[C@H](CNC(=O)[C@@H]4CC[C@H](N)C4)C3)[C@H](C)[C@H]12 [Example 260]", "carbapenemase producing K. pneumoniae", 8),
]

Moving on to the next compound.
MIC of CNCC(=O)N1CCN(C(=O)[C@@H]2C[C@H](SC3=C(C(=O)O)N4C(=O)[C@H]([C@@H](C)NC(=O)C(F)F)[C@H]4[C@H]3C)CN2)CC1 [Example 158] on carbapenemase producing K. pneumoniae?
4

###

test system: carbapenemase producing K. pneumoniae; assay: MIC by broth micro-dilution (CLSI), carbapenemase producing K. pneumoniae; format: cell-based, Klebsiella pneumoniae; conditions: Klebsiella pneumoniae, ATCCBAA1705, KPC-2 K. pneumoniae ATCC BAA-1705; read-out: MIC
RECORDED ENDPOINT: MIC (µg/mL)
Entry rule: numbers only, all in µg/mL.

// worked examples, MIC included
# COMPOUND, MIC [µg/mL]
rows = [
    ("C[C@@H](NC(=O)Cn1nnc(N)n1)[C@H]1C(=O)N2C(C(=O)O)=C(S[C@@H]3CN[C@H](C(=O)N(C)C)C3)[C@H](C)[C@H]12 [Example 315]", 2),
    ("C[C@@H](NC(=O)Cn1cnnn1)[C@H]1C(=O)N2C(C(=O)O)=C(S[C@@H]3CN[C@H](C(=O)N4C[C@H](NC(=N)N)[C@@H](O)C4)C3)[C@H](C)[C@H]12 [Example 427]", 1),
]

Now consider the entry below.
Data request, read-out MIC, for CCOC(=O)c1nnnn1CC(=O)N[C@H](C)[C@H]1C(=O)N2C(C(=O)O)=C(S[C@@H]3CN[C@H](C(=O)N4CC[C@@H](N)C4)C3)[C@H](C)[C@H]12 [Example 339]
32

###

In this section, each of the compounds is paired with its reported MIC.
test system: carbapenemase producing K. pneumoniae; test: MIC by broth micro-dilution (CLSI), carbapenemase producing K. pneumoniae; format: cell-based, Klebsiella pneumoniae; conditions: Klebsiella pneumoniae, ATCCBAA1705, KPC-2 K. pneumoniae ATCC BAA-1705; read-out: MIC
Output spec: scalar in µg/mL, unitless text.

Here's what some known entries look like.
# SUBSTANCE SMILES, MIC (µg/mL)
measured = [
    ("COC(=O)N[C@H](C)[C@H]1C(=O)N2C(C(=O)O)=C(S[C@@H]3CN[C@H](C(=O)N(C)C)C3)[C@H](C)[C@H]12", 4),
    ("C[C@@H](NC(=O)Cn1cnnn1)[C@H]1C(=O)N2C(C(=O)O)=C(S[C@@H]3CN[C@H](C(=O)N4CCC(C)(N)CC4)C3)[C@H](C)[C@H]12", 4),
    ("C[C@@H](NC(=O)C(F)F)[C@H]1C(=O)N2C(C(=O)O)=C(S[C@@H]3CN[C@H](C(=O)N4CCC[C@H](N)C4)C3)[C@H](C)[C@H]12", 4),
    ("C[C@@H](NS(=O)(=O)c1cccs1)[C@H]1C(=O)N2C(C(=O)O)=C(S[C@@H]3CN[C@H](C(=O)N(C)C)C3)[C@H](C)[C@@H]12", 16),
    ("C[C@@H](NC(=O)Cn1cnnn1)[C@H]1C(=O)N2C(C(=O)O)=C(S[C@@H]3CN[C@H](C(=O)N4C[C@@H](O)C[C@H]4CN)C3)[C@H](C)[C@H]12", 2),
]

MIC lookup needed for C[C@@H](NS(=O)(=O)Cc1ccccc1)[C@H]1C(=O)N2C(C(=O)O)=C(S[C@@H]3CN[C@H](C(=O)N(C)C)C3)[C@H](C)[C@H]12 , thanks.
16

Then this compound: C[C@@H](NC(=O)Cn1cnnn1)[C@H]1C(=O)N2C(C(=O)O)=C(S[C@@H]3CN[C@H](C(=O)N4CCC(CNC(=O)CN)CC4)C3)[C@H](C)[C@H]12
2

Follow-up entry: C[C@@H](NC(=O)[C@@H]1CCCN1)[C@H]1C(=O)N2C(C(=O)O)=C(S[C@@H]3CN[C@H](C(=O)N4CC[C@@H](N)C4)C3)[C@H](C)[C@H]12
4

What would you report for C[C@@H](NC(=O)Cn1cnnn1)[C@H]1C(=O)N2C(C(=O)O)=C(S[C@@H]3CN[C@H](C(=O)N4C[C@H](N)C[C@@H]4CO)C3)[C@H](C)[C@H]12 ?
2

Another compound: C[C@@H](NC(=O)Cn1cnnn1)[C@H]1C(=O)N2C(C(=O)O)=C(S[C@@H]3CN[C@H](C(=O)N4C[C@@H](O)[C@H](NC(=N)N)C4)C3)[C@H](C)[C@H]12
0.5

# repeat for C[C@@H](NC(=O)Cn1cnnn1)[C@H]1C(=O)N2C(C(=O)O)=C(S[C@@H]3CN[C@H](C(=O)N4CCN(C[C@H](N)CN)CC4)C3)[C@H](C)[C@H]12
1
